biological target: T1, human TMEM106B (human, UniProt Q9NUM4 2-274); assay: FACS A549, 1 ug/ml
T1 construct: Full-length, on transiently transfected HEK293 cells, or natively expressed on HeLa, U251 and A549 cells; also called huTMEM106B; huTMEM
Reported MFI values for the following binders.

// known answers, use as guide
Binder	Test result
anti-TMEM106B antibody TM-28 (antibody, V domains shown) VH: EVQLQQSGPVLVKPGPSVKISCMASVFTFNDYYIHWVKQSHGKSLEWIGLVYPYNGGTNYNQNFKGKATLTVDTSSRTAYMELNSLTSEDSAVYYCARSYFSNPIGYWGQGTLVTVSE VL: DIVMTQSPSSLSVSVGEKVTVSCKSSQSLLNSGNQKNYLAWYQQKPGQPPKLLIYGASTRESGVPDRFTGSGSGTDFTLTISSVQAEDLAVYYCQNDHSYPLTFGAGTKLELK	2630
anti-TMEM106B antibody TM-33 (antibody, V domains shown, mouse IgG from hybridoma) VH: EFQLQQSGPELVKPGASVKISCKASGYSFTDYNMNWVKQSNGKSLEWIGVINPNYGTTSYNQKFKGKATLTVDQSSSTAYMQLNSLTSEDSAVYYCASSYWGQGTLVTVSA VL: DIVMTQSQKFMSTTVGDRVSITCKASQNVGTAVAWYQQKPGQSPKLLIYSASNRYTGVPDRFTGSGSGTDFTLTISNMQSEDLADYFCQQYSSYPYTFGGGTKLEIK	366
anti-TMEM106B antibody TM-6 (antibody, V domains shown, mouse IgG from hybridoma) VH: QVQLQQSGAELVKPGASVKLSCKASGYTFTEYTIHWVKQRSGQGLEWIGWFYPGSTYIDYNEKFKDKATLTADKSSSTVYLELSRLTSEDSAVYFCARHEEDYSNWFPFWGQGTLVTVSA VL: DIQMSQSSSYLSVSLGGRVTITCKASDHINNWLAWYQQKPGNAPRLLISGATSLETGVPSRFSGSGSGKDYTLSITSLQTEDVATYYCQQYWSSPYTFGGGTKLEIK	418

Request: Data request, read-out MFI, for anti-TMEM106B antibody TM-30 (antibody, V domains shown, mouse IgG from hybridoma) VH: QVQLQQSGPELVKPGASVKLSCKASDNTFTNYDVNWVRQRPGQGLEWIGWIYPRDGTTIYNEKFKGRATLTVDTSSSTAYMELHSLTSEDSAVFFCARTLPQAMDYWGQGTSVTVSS VL: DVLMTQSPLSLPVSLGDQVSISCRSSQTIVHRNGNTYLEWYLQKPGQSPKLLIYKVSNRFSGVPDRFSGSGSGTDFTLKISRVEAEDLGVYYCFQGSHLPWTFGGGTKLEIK
Result: 3030

Request: Data request, read-out MFI, for anti-TMEM106B antibody TM-10 (antibody, V domains shown) VH: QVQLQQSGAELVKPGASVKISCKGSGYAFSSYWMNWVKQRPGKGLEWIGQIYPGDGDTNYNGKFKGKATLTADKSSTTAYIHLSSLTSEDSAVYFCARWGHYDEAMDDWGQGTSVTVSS VL: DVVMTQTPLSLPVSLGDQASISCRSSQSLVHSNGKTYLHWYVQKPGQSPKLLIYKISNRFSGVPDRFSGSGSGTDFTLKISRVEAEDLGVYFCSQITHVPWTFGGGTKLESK
Result: 663

Each recorded value in this set is attributed to patent US20230303681A1.
